ASSAY DETAILS: amyloid nucleation score (Sup35N fusion, yeast selection) (log enrichment); library NNK3; higher = more nucleation; inactive = no reads after selection;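 note: zero at mode of non-aggregating sequences after 7 days selection at 30°C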
READOUT: amyloid nucleation score

[[record]]
substance = "KGHCQAVGLKEEKPR"
measured_value = "inactive"

[[record]]
substance = "VYFSDVV"
measured_value = "inactive"

[[record]]
substance = "WVVRKVHSLSHCLGCHPESW"
measured_value = 0.231

[[record]]
substance = "KKVISSCFYRVCVSSPAGSV"
measured_value = "inactive"

[[record]]
substance = "NTMLKSVMVFWRMLDFRFRL"
measured_value = "inactive"

[[record]]
substance = "LLIRTSLVGEIPLSVSVGCL"
measured_value = "inactive"

[[record]]
substance = "CIFFWSALARLFFGLFNYPC"
measured_value = "inactive"

[[record]]
substance = "SVIIRRGTSQPNRVSWNKVK"
measured_value = "inactive"

[[record]]
substance = "LWFMDFMQSSNSEYQPIVGL"
measured_value = "inactive"

[[record]]
substance = "SNDYCRGCVCLDSGMNVCVA"
measured_value = "inactive"

[[record]]
substance = "TMAEGL"
measured_value = "inactive"

[[record]]
substance = "SMNNWGFDNICSQVCPLAAM"
measured_value = "inactive"

[[record]]
substance = "YSVIMPCSNLNWVDMNLTEY"
measured_value = -0.169

[[record]]
substance = "MKAYILMVDRLVVELVPHVA"
measured_value = -0.107

[[record]]
substance = "CMVLDGRYNGWSISVWDARL"
measured_value = "inactive"

[[record]]
substance = "IATTDIYAAYFYSLMQAIYR"
measured_value = "inactive"

[[record]]
substance = "TYTFLSPVIDYKLYVYQCRT"
measured_value = 1.72

